target: Carbonic anhydrase 9 (Homo sapiens)
ASSAY_ENDPOINT: Ki (nM)
Please reply with the bare figure in nM and do not write the unit itself.

NS(=O)(=O)c1ccc(C[Se]c2ccc3ccccc3c2)cc1
337
N#C[Se]Cc1ccc(S(N)(=O)=O)cc1
4

Let us examine a further case.
Enter reported Ki observed with Carbonic anhydrase 9 (Homo sapiens) for NS(=O)(=O)c1ccc([Se]CC2CC2)cc1
46.4

====

biological target: Carbonic anhydrase 9 (Homo sapiens)
ASSAY_ENDPOINT: Ki (µM)
Please reply with the bare figure in µM and do not write the unit itself.

# annotated cases, reported Ki shown
NS(=O)(=O)c1ccc(C[Se]c2ccc(NC(=O)Nc3ccc(F)cc3)cc2)cc1
1.07
NS(=O)(=O)c1ccc([Se]Cc2ccccc2)cc1
0.549
CN(C)c1ccc([Se]Cc2ccc(S(N)(=O)=O)cc2)cc1
0.45

Let us examine a further case.
Enter reported Ki observed with Carbonic anhydrase 9 (Homo sapiens) for Nc1ccc([Se]Cc2ccc(S(N)(=O)=O)cc2)cc1
0.286
